- Test system: Oryza sativa, (L.) Tebonnet
- Method description: Rice tolerance to post-transplant applications under flooded paddy conditions (Example 187), ORYSAT (Rice, Tebonnet); further: meaning of each grade not given here
- Assay conditions: Rate 0.0620 kg/ha, rated three to four weeks after treatment
Consider the following compounds; for each one, report its herbicidal effect rating ORYSAT.
Could you keep your reply to the number by itself?

Please report the recorded herbicidal effect rating ORYSAT for COCCOCCOC(=O)c1nsc2ccc(-n3c(=O)cc(C(F)(F)F)n(C)c3=O)cc12 .
4.0

Which herbicidal effect rating ORYSAT is reported for this compound? Cn1c(C(F)(F)F)cc(=O)n(-c2ccc3snc(COS(=O)(=O)c4ccccc4)c3c2)c1=O
6.0

What value of herbicidal effect rating ORYSAT has been reported for the following compound? Cn1c(C(F)(F)F)cc(=O)n(-c2ccc3snc(COCc4ccc(Cl)cc4)c3c2)c1=O
1.0

So what's the measured herbicidal effect rating ORYSAT for this one? Cn1c(C(F)(F)F)cc(=O)n(-c2ccc3snc(C(C#N)=Cc4ccoc4)c3c2)c1=O
0.0

GET /values?readout=herbicidal effect rating ORYSAT&item= COc1ccccc1C=C(C#N)c1nsc2ccc(-n3c(=O)cc(C(F)(F)F)n(C)c3=O)cc12
3.0

Form field: reported herbicidal effect rating ORYSAT of COCc1nsc2cc(F)c(-n3c(=O)cc(C(F)(F)F)n(C)c3=O)cc12
9.0

Please give the measured herbicidal effect rating ORYSAT for this compound: C[C@@H](Br)[C@H](Br)c1nsc2ccc(-n3c(=O)cc(C(F)(F)F)n(C)c3=O)cc12
4.5

Reported herbicidal effect rating ORYSAT, compound CC(C)S(=O)(=O)NC(=O)c1nsc2ccc(-n3c(=O)cc(C(F)(F)F)n(C)c3=O)cc12 : ____
4.0

Form field: reported herbicidal effect rating ORYSAT of CC(C)NC(=O)c1nsc2ccc(-n3c(=O)cc(C(F)(F)F)n(C)c3=O)cc12
7.0

Item C[C@H](Br)[C@H](Br)c1nsc2ccc(-n3c(=O)cc(C(F)(F)F)n(C)c3=O)cc12 has what recorded herbicidal effect rating ORYSAT?
4.5

What value of measured herbicidal effect rating ORYSAT is listed for Cn1c(C(F)(F)F)cc(=O)n(-c2cc3c(CBr)nsc3cc2F)c1=O ?
6.0

Could you tell me which herbicidal effect rating ORYSAT is on file for Cn1c(C(F)(F)F)cc(=O)n(-c2ccc3snc(C(=O)NS(=O)(=O)Cc4ccccc4)c3c2)c1=O ?
2.5

Return reported herbicidal effect rating ORYSAT; argument: CC#CCOC(=O)c1nsc2ccc(-n3c(=O)cc(C(F)(F)F)n(C)c3=O)cc12
4.0

Reported herbicidal effect rating ORYSAT for COc1ccc(OC)c(-c2nsc3ccc(-n4c(=O)cc(C(F)(F)F)n(C)c4=O)cc23)c1 : what is it?
6.0

Given the entry CN(C(=O)c1nsc2ccc(-n3c(=O)cc(C(F)(F)F)n(C)c3=O)cc12)c1ccc(Cl)cc1 , report its measured herbicidal effect rating ORYSAT.
5.0

Requested field: herbicidal effect rating ORYSAT. Item: Cn1c(C(F)(F)F)cc(=O)n(-c2ccc3snc(C(=O)NS(C)(=O)=O)c3c2)c1=O
5.0

Report herbicidal effect rating ORYSAT for CC(Br)c1nsc2ccc(-n3c(=O)cc(C(F)(F)F)n(C)c3=O)cc12 (stereo not shown) please.
7.0

Which herbicidal effect rating ORYSAT value belongs to Cn1c(C(F)(F)F)cc(=O)n(-c2ccc3snc(C(C#N)=Cc4cnc[nH]4)c3c2)c1=O ?
0.0

Quick check: herbicidal effect rating ORYSAT of Cn1c(C(F)(F)F)cc(=O)n(-c2ccc3snc(C#N)c3c2)c1=O ?
6.5

Which herbicidal effect rating ORYSAT is listed for CC(C#N)c1nsc2ccc(-n3c(=O)cc(C(F)(F)F)n(C)c3=O)cc12 (stereo not shown) ?
7.0

Can you share its herbicidal effect rating ORYSAT? I mean this compound: Cn1c(C(F)(F)F)cc(=O)n(-c2ccc3snc(C(=O)NS(=O)(=O)c4ccc(Cl)cc4)c3c2)c1=O
2.5

Find the recorded herbicidal effect rating ORYSAT belonging to Cn1c(C(F)(F)F)cc(=O)n(-c2ccc3snc(COCc4ccc(Cl)c(Cl)c4)c3c2)c1=O and report it.
2.0

So what's the measured herbicidal effect rating ORYSAT for this one? C#CCC(C#N)(CC#C)c1nsc2ccc(-n3c(=O)cc(C(F)(F)F)n(C)c3=O)cc12
3.5

Using the record for Cn1c(C(F)(F)F)cc(=O)n(-c2ccc3snc(C(=O)NS(=O)(=O)CCl)c3c2)c1=O [Example 324] , report its herbicidal effect rating ORYSAT.
4.0

Query (compound): Cc1ccc(OC(C)(C)C(=O)NS(C)(=O)=O)c(-c2nsc3ccc(-n4c(=O)cc(C(F)(F)F)n(C)c4=O)cc23)c1 ; field requested: herbicidal effect rating ORYSAT
7.0

For the compound shown here, Cn1c(C(F)(F)F)cc(=O)n(-c2ccc3snc(CSCC(=O)NS(C)(=O)=O)c3c2)c1=O , give the reported herbicidal effect rating ORYSAT.
0.0

Recorded herbicidal effect rating ORYSAT of CN(C(=O)c1nsc2ccc(-n3c(=O)cc(C(F)(F)F)n(C)c3=O)cc12)S(C)(=O)=O , please.
0.0

Quick one: herbicidal effect rating ORYSAT of CC(C)C=C(C#N)c1nsc2ccc(-n3c(=O)cc(C(F)(F)F)n(C)c3=O)cc12 ?
4.0

Suppose we examine the compound Cc1ccc(OCC(=O)NO)c(-c2nsc3ccc(-n4c(=O)cc(C(F)(F)F)n(C)c4=O)cc23)c1 ; what herbicidal effect rating ORYSAT value has been reported?
1.0

Can you look up the measured herbicidal effect rating ORYSAT of CNC.Cn1c(C(F)(F)F)cc(=O)n(-c2ccc3snc(CSCC(=O)O)c3c2)c1=O for me?
0.0

Query: herbicidal effect rating ORYSAT; subject: Cn1c(C(F)(F)F)cc(=O)n(-c2cc3c(C(Br)Br)nsc3cc2F)c1=O
8.0
